# ASSAY INFO: soluble fraction after stress (log2 fold change); higher = more stays soluble; pooled small domains, quantitative proteomics
# CONDITION: stress: pH 4
Documented soluble fraction (log2) across a set of sequences
READOUT TYPE: soluble fraction (log2)

* HMNRLEFLQGLKAELEGRVPHSIIQENLRYYDSYISDEAAKGQSEEDVVESLGGPRIIARTIVDAA | -0.52
* HMAGWMPGGTNPAEPGRFAVLMDVDDSDAYKHMFLRWNGHAWEFERTRVLVKMEPSWWMRLPDDPEKP | -0.27
* HMVSSVAAISQMIDEKDRYTSEHSHRVAEYARLIGAHMGFAGEELDSLYRSALLHDIGKIAVPDAILNK | -0.417
* HMHTGEVVNGKVIDVKEDQIILNVGFKSDGIITRSEYSNDNSLDLRTVVNVGDDMEAKVLKINDGEGQVLL | -0.343
* HMPKKLIWERTTSKLQLYITQDRYELKTPLMTIPFTSKSKMMVYLQQRYHLDMQEYRQIYDAG | 0.0815
* HMILNNAKINTELNSLAEFTQRSLDSNTSEIGFYDYKKISYIASFATMKTTNWNVIIRAPINEFMGTVN | 0.203
* HMLEINTIIGNNLKKIRQEKKLTLDELAGITGVSKGMLSQIEKGTTNPTINTIWKISNGLNVPYTYLLEDD | -0.0827
* HMSVERIEPPLPLIDTLLALRDALERPLSREENAFLSRRFAGGATRAQIDALAAQFRGAAAAESKV | -0.324
